From: ChEMBL document CHEMBL4219242

Test system: PC-12
Experiment: Neuroprotective activity against oxygen glucose deprivation-induced cell death in rat PC12 cells assessed as change in cell viability at 1 uM after 24 hrs by MTT assay relative to control
Format: functional
Returns: string. Value is true (1) if measured Activity is below 10%, and false (0) if it is greater than or equal to it.

Record excerpt, results attached:
>  <cpd.smiles>
CC1CCN(Cc2c(-c3ccc(F)cc3)no[n+]2[O-])CC1

>  <category.label>
false (0)

$$$$
>  <cpd.smiles>
CC1CCN(Cc2no[n+]([O-])c2-c2ccc(Cl)cc2)CC1

>  <category.label>
true (1)

$$$$
>  <cpd.smiles>
COc1ccc(-c2no[n+]([O-])c2CN2CCC(C)CC2)cc1

>  <category.label>
false (0)

$$$$

query: Bench note: check whether `Cc1ccc(-c2no[n+]([O-])c2CN2CCC(C)CC2)cc1` shows Activity below 10%
result: true (1)

query: Bench note: check whether `CC1CCN(Cc2c(-c3ccc(Cl)cc3)no[n+]2[O-])CC1` shows Activity below 10%
result: false (0)

query: Bench note: check whether `[2H]C1([2H])CC(C)CC([2H])([2H])N1Cc1no[n+]([O-])c1-c1ccc(F)cc1` shows Activity below 10%
result: true (1)

query: Bench note: check whether `CC1CCN(Cc2no[n+]([O-])c2-c2ccc(Br)cc2)CC1` shows Activity below 10%
result: false (0)

query: Bench note: check whether `COc1ccc(-c2c(CN3CCC(C)CC3)no[n+]2[O-])cc1` shows Activity below 10%
result: false (0)
